Property: PGE2 EC50 with compound; scope: individual compounds
experimental_system: Prostaglandin E2 receptor EP2 subtype (Homo sapiens) (UniProt P43116)
Sequence (P43116 whole entry, looked up): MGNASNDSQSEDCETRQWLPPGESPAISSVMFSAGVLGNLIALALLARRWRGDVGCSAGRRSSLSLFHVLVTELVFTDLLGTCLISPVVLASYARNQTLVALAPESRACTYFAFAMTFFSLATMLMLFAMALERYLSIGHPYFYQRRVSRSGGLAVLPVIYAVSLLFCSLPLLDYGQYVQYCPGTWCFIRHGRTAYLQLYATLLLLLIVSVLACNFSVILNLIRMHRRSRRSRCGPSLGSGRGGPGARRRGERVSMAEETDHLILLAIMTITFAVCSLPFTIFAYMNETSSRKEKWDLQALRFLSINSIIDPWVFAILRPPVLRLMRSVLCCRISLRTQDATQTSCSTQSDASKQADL
assay_remarks: EP2 receptor modulators, dose response, cell-based, human EP2, PGE2 EC50 shift (AID 1421)
condition_details: EP2-expressing cells, PGE2 EC50 shift by compound; measured here: PGE2 EC50 at 6.7 uM compound

compound | units_of_measure | PGE2 EC50 with compound
Cc1cc2ccccc2nc1SCC(=O)NC1CCCCC1 | nM | 2.75
COc1ccccc1C1c2[nH]c3ccccc3c2CCN1Cc1cnc(C)s1 (stereo not drawn) | nM | 1.59
Cc1c(OCc2ccccc2)c(=O)ccn1Cc1ccc(Cl)cc1 | nM | 1.02
CC(C)CCn1c(N2CCN(c3cccc(Cl)c3)CC2)nc2c1c(=O)[nH]c(=O)n2C | nM | 0.93
COc1ccc2c(c1)C(C)=CC(C)(C)N2S(=O)(=O)c1ccc(Br)cc1 | nM | 0.98
Nn1cnc2c(c1=O)C1(CCCCC1)Cc1ccccc1-2 | nM | 0.81
O=C(Oc1ccc(-c2nccc(-c3ccccn3)n2)cc1)c1cccc(C(F)(F)F)c1 | nM | 1.44
COC(=O)c1c(NC(=O)Cc2cccs2)sc(C)c1C | nM | 0.88
Cc1ccc(S(=O)(=O)n2c3ccc(F)cc3c3nc(C)sc32)cc1 | nM | 0.84
Cc1noc(C)c1CSc1nc2ccccc2c(=O)n1-c1ccccc1 | nM | 1.3
CCOC(=O)/C(N=Nc1c(Br)cc(Br)cc1Br)=C(\C)O | nM | 0.84
Cc1ccccc1C(=O)Nc1ccccc1Sc1ccccc1 | nM | 0.86
CCSc1ccccc1C(=O)n1nnc2ccccc21 | nM | 1.77
C=CCc1cc(C=O)cc(OC)c1OCc1c(Cl)cccc1Cl | nM | 0.59
O=C(O)c1ccc(N2C(=O)/C(=C/C=C/c3ccccc3)SC2=S)cc1 | nM | 2.89
CCCOP(=O)(OCCC)c1nc(-c2ccccc2)oc1NCc1ccccc1 | nM | 1.01
Cc1ccc2cccc(NC(=O)c3ccc(Br)o3)c2n1 | nM | 0.83
N#Cc1c(-c2ccco2)nc(SCc2ccc(F)cc2)[nH]c1=O | nM | 2.86
CCOC(=O)c1c(C=O)c(C)n(Cc2ccc(C)cc2)c1C | nM | 1.31
CC12CCC(C(=O)N(CSC(=S)N/N=C\c3ccccc3Cl)C1=O)C2(C)C (stereo not drawn) | nM | 1.7
COc1ccccc1Nc1cc(C)nc2c(C)ccc([N+](=O)[O-])c12 | nM | 1.12
N#CCSc1nc2c(c(C3CC=CCC3)c1C#N)CCC2 (stereo not drawn) | nM | 1.45
COc1ccc(N2CCN(c3nc4c(c(=O)n(C)c(=O)n4C)n3Cc3ccccc3)CC2)cc1 | nM | 0.92

* * *

experimental_system: Prostaglandin E2 receptor EP2 subtype (Homo sapiens) (UniProt P43116)
assay_remarks: EP2 receptor modulators, dose response, cell-based, human EP2, PGE2 EC50 shift (AID 1421)
condition_details: EP2-expressing cells, PGE2 EC50 shift by compound; measured here: PGE2 EC50 at 6.7 uM compound
quantity: PGE2 EC50 with compound (nM)

compound | recorded_number
COc1c(O)ccc(/C=C(\C#N)c2nc3ccccc3[nH]2)c1[N+](=O)[O-] | 1.1
CCOC(=O)CSc1nc(-c2ccccc2)nc2ccccc12 | 0.87
COc1cccc2[nH]c3c(N4CC(C)CC(C)C4)ncnc3c12 (stereo unspecified) | 1.15
CCOC(=O)c1sc(NC(=O)CN2C(=O)c3cccc4cccc(c34)C2=O)nc1C | 1.37
Cc1cc2ccccn2c1C(=O)c1ccc(Cl)cc1 | 1.24
NC(=O)c1sc2nc(N3CCCCC3)c3c(c2c1N)CCCC3 | 2.62
C=C(C)Cn1c(C)cc(C)c(S(=O)(=O)c2ccc(C)cc2)c1=O | 1.04
Cc1cccc(N=N/C(=C\O)C(=O)c2ccc(Br)cc2)c1 | 0.31
COc1cc2c(cc1OC)-c1cc(Nc3ccc4c(c3)OCCO4)nc(=O)n1CC2 | 2.5
OC(Cc1ccccc1)(Cc1ccccc1)c1ccccc1 | 1.02
Cc1cc(Oc2ccccc2)nc(NCc2ccccc2)n1 | 0.63
